- procedureSummary: Inhibition of protein kinase A was evaluated as Inhibitory concentration
recordedMetric: log10 IC50 (log10 of the value in µM)
Could you please treat all values as log10 of IC50 in µM?

Input: Which log10 IC50 reading was recorded for the compound Cn1cc(C2=C(c3c4n(c5ccccc35)CCC(N)C4)C(=O)NC2=O)c2ccccc21 (stereo unspecified) ?
Output: 0.52

Input: # lookup: log10 IC50 of Cn1cc(C2=C(c3c4n(c5ccccc35)CC[C@@H](CN)C4)C(=O)NC2=O)c2ccccc21
Output: -0.05

Input: Recorded log10 IC50 of Cn1cc(C2=C(c3c4n(c5ccccc35)CCC(N)CC4)C(=O)NC2=O)c2ccccc21 (stereo unspecified) , please.
Output: 0.38

Input: Look at this compound and give its reported log10 IC50. Cn1cc(C2=C(c3c4n(c5ccccc35)CCC4)C(=O)NC2=O)c2ccccc21
Output: 1.83

Input: Which log10 IC50 is listed for Cn1cc(C2=C(c3c4n(c5ccccc35)CC(N)CC4)C(=O)NC2=O)c2ccccc21 (stereo unspecified) ?
Output: 0.61

Input: Returns the measured log10 IC50 for the input compound. Input: CN(C)CC1CCn2c(c(C3=C(c4cn(C)c5ccccc45)C(=O)NC3=O)c3ccccc32)C1.Cl (stereo unspecified)
Output: 0.93

----------
What pIC50 was measured for each of the following?
- procedureSummary: Inhibition of protein kinase A was evaluated as Inhibitory concentration
Please note pIC50 is a logarithmic value: minus log10 of concentration in mol/L. Answer with that number alone.

Input: For the molecule shown here, Cn1cc(C2=C(c3c4n(c5ccccc35)CC(CN)C4)C(=O)NC2=O)c2ccccc21 (stereo not given) , give the reported pIC50.
Output: 5.41

Input: Quick one: pIC50 of Cn1cc(C2=C(c3c4n(c5ccccc35)CCCC4)C(=O)NC2=O)c2ccccc21 ?
Output: 4.64

Input: Entry under review: Cn1cc(C2=C(c3c4n(c5ccccc35)CCC(CN)CC4)C(=O)NC2=O)c2ccccc21 (stereo not given) . Reported pIC50?
Output: 5.59

Input: GET /values?readout=pIC50&item= Cn1cc(C2=C(c3c4n(c5ccccc35)CC(CN)CCC4)C(=O)NC2=O)c2ccccc21 (stereo not given)
Output: 4.89

Input: Param item = Cn1cc(C2=C(c3c4n(c5ccccc35)CCCC(CN)C4)C(=O)NC2=O)c2ccccc21 (stereo not given) ; retrieve measured pIC50.
Output: 4.47

----------
- procedureSummary: Inhibition of rabbit muscle phosphorylase kinase (PhK)
- Design: species or system Oryctolagus cuniculus
recordedMetric: pIC50
Note: pIC50 values are expressed as the negative base-10 logarithm of concentration in M.

Input: Query: pIC50; subject: Cn1cc(C2=C(c3c4n(c5ccccc35)CCC(CN)C4)C(=O)NC2=O)c2ccccc21 (stereo unspecified)
Output: 5.89

----------
- target: Proto-oncogene tyrosine-protein kinase Src (Homo sapiens, UniProt P12931)
- Sequence (P12931 2-536 limits assumed): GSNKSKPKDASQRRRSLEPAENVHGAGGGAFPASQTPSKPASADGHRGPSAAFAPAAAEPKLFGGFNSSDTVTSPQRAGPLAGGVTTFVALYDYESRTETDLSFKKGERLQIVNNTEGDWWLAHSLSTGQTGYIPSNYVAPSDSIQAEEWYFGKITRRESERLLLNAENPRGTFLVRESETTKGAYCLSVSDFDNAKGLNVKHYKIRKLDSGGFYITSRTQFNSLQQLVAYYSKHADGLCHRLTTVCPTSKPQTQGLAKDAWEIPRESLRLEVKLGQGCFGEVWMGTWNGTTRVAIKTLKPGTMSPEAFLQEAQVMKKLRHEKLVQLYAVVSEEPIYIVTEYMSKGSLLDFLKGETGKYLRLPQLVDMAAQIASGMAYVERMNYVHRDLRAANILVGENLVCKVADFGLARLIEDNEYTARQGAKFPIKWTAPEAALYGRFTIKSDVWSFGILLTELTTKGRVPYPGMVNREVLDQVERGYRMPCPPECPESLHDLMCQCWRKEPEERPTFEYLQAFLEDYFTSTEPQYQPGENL
recordedMetric: IC50

Input: What measured IC50 goes with Cn1cc(C2=C(c3c4n(c5ccccc35)CCC(CN)C4)C(=O)NC2=O)c2ccccc21 (stereo unspecified) ?
Output: > 100 µM

----------
- procedureSummary: Inhibition of protein kinase A was evaluated as Inhibitory concentration
pIC50: −log10 of the molar value.
Given measured pIC50, output satisfied if it is greater than or equal to 5 and not satisfied if not.

Input: State whether the measured pIC50 reaches 5, counting equality as reaching it, for Cn1cc(C2=C(c3c4n(c5ccccc35)CC(CN)CC4)C(=O)NC2=O)c2ccccc21 (centres undefined)
Output: satisfied

Input: For this compound, is measured pIC50 5 or higher? Cl.Cn1cc(C2=C(c3c4n(c5ccccc35)CC(CCN)CC4)C(=O)NC2=O)c2ccccc21 (centres undefined)
Output: satisfied

Input: Given CNCC1CCn2c(c(C3=C(c4cn(C)c5ccccc45)C(=O)NC3=O)c3ccccc32)C1.Cl (centres undefined) , state whether its pIC50 is at least 5.
Output: satisfied

Input: Has Cn1cc(C2=C(c3c4n(c5ccccc35)CCC(C[N+](C)(C)C)C4)C(=O)NC2=O)c2ccccc21 (centres undefined) a recorded pIC50 greater than or equal to 5?
Output: not satisfied

Input: Does pIC50 meet or surpass 5 for Cn1cc(C2=C(c3c4n(c5ccccc35)CCCCC4)C(=O)NC2=O)c2ccccc21 ?
Output: not satisfied

Input: Hi team, for Cn1cc(C2=C(c3c4n(c5ccccc35)CCC(CCN)C4)C(=O)NC2=O)c2ccccc21 (centres undefined) , is the recorded pIC50 at or above 5?
Output: not satisfied

Input: Could you verify whether the entry Cn1cc(C2=C(c3c4n(c5ccccc35)CCNC4)C(=O)NC2=O)c2ccccc21 shows pIC50 of no less than 5?
Output: satisfied

Input: Threshold query (pIC50 >= 5) on Cn1cc(C2=C(c3c4n(c5ccccc35)CCC(CN)C4)C(=O)NC2=O)c2ccccc21 (centres undefined)
Output: satisfied
